Test system: Vero E6
protocol.notes: cell viability relative to DMSO; higher = less toxic
applied.conditions: 72 h; 10 nM
Record form. Attribute: cell viability. Fill in for each entry.
Respond numerically; units are % and should not be typed.

Given the compound c1ccc(C2CN3CCSC3=N2)cc1 (stereo not given) , what is its reported cell viability?
98.5

Given "O=C(O)c1nn(Cc2ccc(Cl)cc2Cl)c2ccccc12" , state its recorded cell viability.
102

I am curious: what cell viability value has been reported for "COc1cc(Nc2nc3ccccc3nc2NS(=O)(=O)c2ccc(NC(=O)c3ccc(C)c(OC)c3)cc2)cc(OC)c1" ?
95.9

Endpoint output: cell viability of "Cc1c(-c2ccnn2C)cc(C(=O)NCc2ccc(S(C)(=O)=O)cn2)c(=O)n1-c1cccc(C(F)(F)F)c1" . Value?
102

Fill in: cell viability of CC(C(=O)O)c1ccc(CC2CCCC2=O)cc1 (stereo not given) is ___
97.4

* * *

Kindly supply the reported cell viability values for the records listed here.
Test system: Caco-2
protocol.notes: cell viability relative to DMSO; higher = less toxic
applied.conditions: 72 h; 10000 nM
Entry format: amount then unit.

Item "O=C1CCC[C@@H]2[C@H]3C[C@@H](CN12)[C@@H]1CCCCN1C3" has what recorded cell viability?
91.4%

# get_value(readout='cell viability', item= "CC(C)C(=O)OC[C@@]1(N=[N+]=[N-])O[C@@H](n2ccc(N)nc2=O)[C@H](OC(=O)C(C)C)[C@@H]1OC(=O)C(C)C" )
88.9%

Record request: cell viability value, item "CN[C@@H]1[C@H](O)[C@H](NC)[C@H]2O[C@@]3(O)C(=O)C[C@@H](C)O[C@H]3O[C@@H]2[C@H]1O"
91.9%

* * *

Assign cell viability to each entry below.
Test system: Calu-3
protocol.notes: cell viability relative to DMSO; higher = less toxic
applied.conditions: 72 h; 10000 nM
Answer with a number only, understood to be in %.

Request the reported cell viability associated with "NC(=O)c1ncn([C@@H]2O[C@H](CO)[C@@H](O)[C@H]2O)c1O"
88.4

Given "Cc1c(-c2ccnn2C)cc(C(=O)NCc2ccc(S(C)(=O)=O)cn2)c(=O)n1-c1cccc(C(F)(F)F)c1" , state its recorded cell viability.
97.1

For the molecule shown here, "NC(=S)N/N=C/c1ccncc1" , give the reported cell viability.
100

Given COc1cc(N)c(Cl)cc1C(=O)N[C@@H]1CCN(CCCOc2ccc(F)cc2)C[C@@H]1OC (racemic) [cisapride] , state its recorded cell viability.
110

Give its cell viability value. Item: "Oc1ccnc2cc(Cl)ccc12"
92.2

Would you mind telling me what cell viability value was observed for "CC1(C)Oc2ccc(C#N)cc2[C@@H](OC2=CC(=O)CC2)[C@@H]1O" ?
103

Bench note: what cell viability did "O=C(OCCN1CCOCC1)C1(c2ccccc2)CCCCC1" show?
93

Would you kindly share the measured cell viability for "Cn1cc(-c2cnn3c(N)c(Br)c([C@@H]4CCCNC4)nc23)cn1" ?
100

Query (molecule): CC(=O)NO [acetohydroxamic-acid] ; field requested: cell viability
96.9

Item "CCC(=N\O)/C(C)=C/c1ccc(F)cc1" has what recorded cell viability?
95

Which value of cell viability has been reported for "N=C(N)Nc1ccc(C(=O)Oc2ccc3cc(C(=N)N)ccc3c2)cc1" in the records?
99.4

Item under review: "Oc1ccc(Cl)cc1" . Reported cell viability?
104

// cell viability lookup, key: CC(CN1c2ccccc2Sc2ccccc21)N(C)C (stereo unspecified)
96.1

What cell viability value was documented for this molecule, "CC(C)n1nccc1-c1ncccc1COc1cccc(O)c1C=O" ?
101

What value of measured cell viability is listed for "Cc1c(N2C(=O)[C@@H]3[C@H](O)CCN3C2=O)ccc(C#N)c1Cl" ?
105

Field request: cell viability | item: "O=C1NCCN1CCN1CCC(c2cn(-c3ccc(F)cc3)c3ccc(Cl)cc23)CC1"
90

* * *

System: HepG2
protocol.notes: cell viability relative to DMSO; higher = less toxic
applied.conditions: 72 h; 10000 nM
I'd appreciate it if you could supply cell viability values for the items below.
State just the number; it will be interpreted in %.

Recall the recorded cell viability for "CCCCCCCCCCCCCCSCC(=O)O" with HepG2 and state it.
119

Please provide the recorded cell viability for "Nc1nccc(-c2c(-c3ccc(F)cc3)ncn2C2CCCCC2)n1" , tested on HepG2.
43.3

Form entry - test system: HepG2; read-out: cell viability; compound: "O.O=[Si]=O.O=[Si]=O.O=[Si]=O.O=[Si]=O.[O]=[Mg].[O]=[Mg].[O]=[Mg]"
96.7

* * *

Tested on: Caco-2
protocol.notes: drug sensitivity score (DSS) for viability; higher = more toxic; extreme values may be limits of the assay
applied.conditions: 72 h
Assignment: determine reported drug sensitivity score for the given compounds.
Number only, no unit.

May I ask what drug sensitivity score has been recorded for CC(C(=O)O)c1ccc(CC2CCCC2=O)cc1 (stereo unspecified) ?
0

Need drug sensitivity score of "CCc1cc2cc(OC)c(OC)cc2c(Cc2ccccc2)n1" , thanks.
0

Suppose we examine the compound "c1cc(-c2sc(-c3ccncc3)c(-c3ccncc3)c2-c2ccncc2)ccn1" ; what drug sensitivity score value has been reported?
0.2

Entry "Cc1onc(-c2ccccc2)c1C(=O)N[C@@H]1C(=O)N2[C@@H]1SC(C)(C)[C@@H]2C(=O)O" : reported drug sensitivity score = ?
0

Look at this compound and give its reported drug sensitivity score. "O=C(O)c1nc(=O)[nH]c(=O)[nH]1"
0

Query (compound): "CCN1CCN(C(=O)N[C@@H](C(=O)N[C@@H]2C(=O)N3C(C(=O)O)=C(CSc4nnnn4C)CS[C@H]23)c2ccc(O)cc2)C(=O)C1=O" ; field requested: drug sensitivity score
0

* * *

Tested on: HepG2
protocol.notes: cell viability relative to DMSO; higher = less toxic
applied.conditions: 72 h; 1000 nM
Consider the following molecules; for each one, report its cell viability.
Report the figure in % without appending any unit label.

Dear colleague, I am looking for the recorded cell viability of the following molecule: C#CCN1C(C)=C(C(=O)OC)C(c2cccc([N+](=O)[O-])c2)C(C(=O)OCC)=C1C (stereo not given) [MRS-1845]
106

Which value of cell viability has been reported for CCCN(CCC)S(=O)(=O)c1ccc(C(=O)O)cc1 [probenecid] in the records?
95.4

Given the entry c1cc(CN2CCCNCCNCCCNCC2)ccc1CN1CCCNCCNCCCNCC1 [plerixafor] , report its measured cell viability.
106

// lookup cell viability for O=C(c1cc(C2CC2)on1)N(C1CCCCC1)C1CCCCC1 [CYM-5541]
92.3

I would be grateful if you could share the reported cell viability for CCOCC(O)COc1ccc(NC(=O)CC[S+](C)C)cc1 (stereo not given) [suplatast] .
91.2

* * *

Provide the recorded cell viability for the entries that follow.
System: U2OS
protocol.notes: cell viability relative to DMSO; higher = less toxic
applied.conditions: 72 h; 1 nM
Hi! Could you send only the number? It should be in %, unit omitted.

Param readout = cell viability; param system = U2OS; param query = CCC(=O)OCC(=O)[C@@]1(OC(=O)CC)[C@@H](C)C[C@H]2[C@@H]3CCC4=CC(=O)C=C[C@]4(C)[C@@]3(F)[C@@H](O)C[C@@]21C [BETAMETHASONE 17,21-DIPROPIONATE] ; response: value
91.6

# returns recorded cell viability (system: U2OS) for "COc1cc2c(cc1OC)CN(CCc1ccc(NC(=O)c3cccc4c(=O)c5cccc(OC)c5[nH]c34)cc1)CC2"
96.5

Please state recorded cell viability (tested on U2OS) of "O=C(O)C[C@H](O)C(=O)O"
105

Please state recorded cell viability (tested on U2OS) of "Nc1cccc(CNC(=O)c2ccc(Oc3ccc(OCc4cccc(F)c4)cc3)nc2)c1"
99

Find the measured cell viability: item c1ccc2sc(SN3CCOCC3)nc2c1 [N-oxydiethylenebenzothiazole-2-sulfenamide] , target or system U2OS.
96.9

Which measured cell viability belongs to "Cc1cc(C)c(/C=C2\C(=O)Nc3ccccc32)[nH]1" , tested on U2OS?
99.7

I'm curious: which cell viability was measured for "Nc1ncnc2c1c(-c1ccc(Oc3ccccc3)cc1)nn2C1CCCC1" tested on U2OS?
102

What value of cell viability on U2OS does "CO/N=C(\C(=O)N[C@@H]1C(=O)N2C(C(=O)O)=C(CSc3nc(=O)c(O)nn3C)CS[C@H]12)c1csc(N)n1" have?
100

Kindly state the measured cell viability obtained for "Oc1cc(O)c2c(c1)O[C@H](c1ccc(O)c(O)c1)[C@@H](O)C2" with U2OS.
93.9

What value of cell viability on U2OS does "CC(=O)[C@H]1CC[C@H]2[C@@H]3CC[C@H]4C[C@H](O)CC[C@]4(C)[C@H]3CC[C@]12C" have?
98.8
